System: HIV-1 LTR-III G-quadruplex (FAM/TAMRA-labeled LTR-III)
Assay: FRET melting assay, LTR-III G4
Assay type: binding
Conditions: Table S3 primary screening of newly synthesized analogs, 50:1
Lab note: anything with LTR-III ΔTm at or over 6 °C counts as t; the rest go in f.

# check: LTR-III ΔTm of COc1c(O)ccc(/C=C2N=C(/C=C/c3cc(Cl)nc(Cl)c3)N(C)C\2=O)c1OC [N1198] is greater than or equal to 6 °C
t

# check: LTR-III ΔTm of COc1c(O)ccc(/C=C2N=C(/C=C/c3cc(Br)c(O)c(Br)c3)N(C)C\2=O)c1OC [N1199] is greater than or equal to 6 °C
f

# check: LTR-III ΔTm of COc1cc(/C=C2N=C(/C=C/C=C/c3ccc(N(C)C)cc3)N(C)C\2=O)cc(OC)c1O [N1195] is greater than or equal to 6 °C
f

# check: LTR-III ΔTm of COc1cc(/C=C2N=C(/C=C/c3cc(OC)c(O)c(OC)c3)N(C)C\2=O)cc(OC)c1O [N1193] is greater than or equal to 6 °C
t

# check: LTR-III ΔTm of COc1c(O)ccc(/C=C2N=C(/C=C/c3ccnc4ccccc34)N(C)C\2=O)c1OC [N1197] is greater than or equal to 6 °C
t

Consider the additional compound presented here.
# check: LTR-III ΔTm of COc1cc(/C=C2N=C(/C=C/c3ccnc4ccccc34)N(C)C\2=O)cc(OC)c1O [N1196] is greater than or equal to 6 °C
t

* * *

Test system: HIV-1 LTR-III G-quadruplex (FAM/TAMRA-labeled LTR-III)
Assay: FRET melting assay, LTR-III G4
Format: binding
Conditions: Table S1 primary screening, ligand:ODN 50:1, singlicate
Records here are stratified by LTR-III ΔTm; strata: group 1: < -0.2 °C; group 2: ≥ -0.2 °C and < 0 °C; group 3: ≥ 0 °C

Lab log: CCN(CC)c1ccc(C=C2N=C(C)NC2=O)cc1 — assign LTR-III ΔTm category
group 3

* * *

Provide the reported LTR-III ΔTm of each item.
System: HIV-1 LTR-III G-quadruplex (FAM/TAMRA-labeled LTR-III)
Assay: FRET melting assay, LTR-III G4
Type: binding
Details: Table S1 primary screening, ligand:ODN 50:1, singlicate
One number for each entry, in °C.

Hi there! I need LTR-III ΔTm for each item below, if you can.
1. CC1=NC(=Cc2ccc(O)c(O)c2)C(=O)N1C
2. CN1C(=O)C(=Cc2ccc(O)cc2)N=C1C=Cc1ccccc1F
3. COc1cc(C=C2SC(=S)NC2=O)c(OC)cc1O
4. COc1c(O)ccc(C=C2N=C(C)N(C)C2=O)c1OC
5. COc1cc(O)ccc1C=C1N=C(C(F)(F)F)N(C)C1=O [M 2738c]

1: -1.4; 2: 0.1; 3: -0.3; 4: -0.1; 5: 0.4

Hi there! I need LTR-III ΔTm for each item below, if you can.
1. COc1ccc(C=C2N=C(Nc3ccc(OC)cc3)N(C)C2=O)cc1
2. CCN(CC)c1ccc(/C=C2\N=C(C)N(C)C2=O)c(O)c1
3. CN1C=NC(=Cc2ccc(O[Si](c3ccccc3)(c3ccccc3)C(C)(C)C)cc2)C1=O
4. CC(=O)Oc1ccc(C=C2N=C(C)N(C)C2=O)cc1

[-0.4, -0.3, -0.5, 0]

Lab note: record LTR-III ΔTm of CCN(CC)c1ccc2cc(C=C3N=C(C)N(C)C3=O)ccc2c1 tested on HIV-1 LTR-III G-quadruplex (FAM/TAMRA-labeled LTR-III).
-0.7
